# Tested on: P450-Glo detection reaction (unspecific esterase and modified firefly-luciferase)
# protocol-notes: P450-Glo detection reaction control (luciferin-EGE, esterase, luciferase, test compound, no CYP2D6)
# test-parameters: 50 µM test compound, no CYP2D6, DMSO control = 100
recorded-metric: P450-Glo Detection Reaction MEAN (total luminescence) (% TL)
Give a bare numeral; the unit % TL is implied.

Before answering, review these 5 worked examples.
| molecule | reading |
| --- | --- |
| COc1ccc(C[C@@H]2NCCc3cc(OC)c(O)cc32)cc1O [Compound 9, (S)-Norreticuline] | 92.36 |
| COC(=O)C1=CO[C@@H](C)[C@@H]2CN3CC[C@@]4(C(=O)Nc5ccccc54)[C@@H]3C[C@H]12 | 92.43 |
| COC(=O)C1=CO[C@@H](C)[C@H]2CN3CC[C@@]4(C(=O)Nc5ccccc54)[C@@H]3C[C@H]12 | 99.41 |
| COc1ccc(/C=C\c2cc(OC)c(OC)cc2CCN(C)C)cc1 | 93.77 |
| COC(=O)C1C(O)CCC2C[N+]3(C)CCc4c([nH]c5cccc(OC)c45)C3CC21 (stereo not drawn) [Compound 8, Venenatine methiodide] | 90.86 |

Let us move to another entry and its P450-Glo Detection Reaction MEAN (total luminescence).
Record request: P450-Glo Detection Reaction MEAN (total luminescence) value, item COC(=O)C1CC23C=CCN4CCC5(c6ccccc6NC15CC2)C43 (single isomer, unassigned; (-)) [Compound 10, (-)-Venalstonine]
96.34

----------
Measured P450-Glo Detection Reaction MEAN Diff. (inhibition of the detection reaction), listed per entry.
# System: P450-Glo detection reaction (unspecific esterase and modified firefly-luciferase)
# protocol-notes: P450-Glo detection reaction control (luciferin-EGE, esterase, luciferase, test compound, no CYP2D6)
# test-parameters: 50 µM test compound, difference to DMSO 1% control
Report the figure in % without appending any unit label.

Examples with answers:
| compound | display-unit | reading |
| --- | --- | --- |
| COC(=O)C1=CO[C@@H](C)[C@@H]2CN3CC[C@@]4(C(=O)Nc5ccccc54)[C@@H]3C[C@H]12 | % | 7.57 |
| COc1ccc(C[C@@H]2NCCc3cc(OC)c(O)cc32)cc1O [Compound 9, (S)-Norreticuline] | % | 7.64 |
| O=C(NCCCCNCCCNC(=O)c1ccc(O)c(O)c1)c1ccc(O)c(O)c1 | % | 13.61 |
| COc1cc2c(cc1OC)C1Cc3cc(O)c(O)cc3CN1CC2 (centres unmarked) | % | 4.73 |

Now take the following compound into account.
P450-Glo Detection Reaction MEAN Diff. (inhibition of the detection reaction) for COC(=O)C1C(O)CCC2C[N+]3(C)CCc4c([nH]c5cccc(OC)c45)C3CC21 (centres unmarked) [Compound 8, Venenatine methiodide] ?
9.14

----------
# tgt: CYP2D6 (Homo sapiens, UniProt P10635)
# Sequence (P10635 whole entry): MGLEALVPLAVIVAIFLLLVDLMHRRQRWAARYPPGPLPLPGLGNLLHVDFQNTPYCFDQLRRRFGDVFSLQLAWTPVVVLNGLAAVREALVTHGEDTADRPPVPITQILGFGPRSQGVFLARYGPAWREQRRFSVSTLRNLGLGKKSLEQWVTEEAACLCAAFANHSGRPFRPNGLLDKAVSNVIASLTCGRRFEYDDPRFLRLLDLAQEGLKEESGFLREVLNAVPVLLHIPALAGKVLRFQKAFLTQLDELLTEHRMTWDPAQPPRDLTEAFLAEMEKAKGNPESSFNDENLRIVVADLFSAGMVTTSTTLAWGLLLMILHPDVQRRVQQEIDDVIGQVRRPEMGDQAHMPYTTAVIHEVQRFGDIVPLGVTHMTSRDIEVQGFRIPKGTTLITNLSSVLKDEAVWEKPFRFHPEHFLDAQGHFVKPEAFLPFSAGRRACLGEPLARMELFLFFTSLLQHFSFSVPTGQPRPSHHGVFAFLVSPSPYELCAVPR
# protocol-notes: P450-Glo CYP2D6 inhibition assay (bioluminescence-based; pre-screen at 100 µM and IC50 determination)
Flag rule - IC50 less than 200 nM flags class 1; the remaining entries get class 0.

Worked examples, 5 compounds total:
| compound | answer-label |
| --- | --- |
| COC1=C[C@]23CCN(C)[C@H](Cc4ccc(OC)c(O)c42)C3=CC1=O [Compound 20, (+)-Salutaridine] | class 0 |
| COc1ccc(CC2c3cc(O)c(OC)cc3CCN2C)cc1O (single isomer, unassigned; (+)) [Compound 19, (+)-Reticuline] | class 1 |
| COc1ccc(C[C@H]2c3cc(OC)c(OC)cc3CCN2C)cc1O [Compound 11, (+)-Laudanidine] | class 0 |
| CN1Cc2c(ccc3c2OCO3)[C@@H]2[C@H]1c1cc3c(cc1C[C@@H]2O)OCO3 [Compound 21, (+)-Chelidonine] | class 1 |
| COC(=O)C1C(O)CCC2C[N+]3(C)CCc4c([nH]c5cccc(OC)c45)C3CC21 (stereo not shown) [Compound 8, Venenatine methiodide] | class 0 |

Strictly below 200 nM: is that where IC50 of COC(=O)C1=CO[C@@H](C)[C@@H]2CN3CC[C@@]4(C(=O)Nc5ccccc54)[C@@H]3C[C@H]12 [Compound 2, Isopteropodine] sits?
class 0

----------
# Tested on: P450-Glo detection reaction (unspecific esterase and modified firefly-luciferase)
# protocol-notes: P450-Glo detection reaction control (luciferin-EGE, esterase, luciferase, test compound, no CYP2D6)
# test-parameters: 50 µM test compound, difference to DMSO 1% control
A collection of molecules and their measured P450-Glo Detection Reaction MEAN Diff. (inhibition of the detection reaction)
Your answer is read as %, so omit the unit and give the number.

Solved cases (4 shown):
| molecule | reading |
| --- | --- |
| COC(=O)N1c2ccccc2C23C4CN5CCCC6(CCC12C(O)(C6)C4=O)C53 (single isomer, unassigned; (-)) [Compound 16, (-)-Kopsine] | 10.30 |
| COC(=O)C1=CO[C@@H](C)[C@H]2CN3CC[C@@]4(C(=O)Nc5ccccc54)[C@@H]3C[C@H]12 | 0.59 |
| CC=C1C2CCN3CCC4(C(=C2C(=O)OC)Nc2ccccc24)C13 (single isomer, unassigned; (+)) [Compound 17, (+)-Condylocarpine] | 7.34 |
| COc1ccc2c(c1OC)CN1CCc3cc4c(cc3C1C2C)OCO4 (stereo not shown) | 8.23 |

Requested field: P450-Glo Detection Reaction MEAN Diff. (inhibition of the detection reaction). Item: COc1cc2c(cc1O)-c1c(O)c(OC)cc3c1[C@H](C2)N(C)CC3
12.30

Need P450-Glo Detection Reaction MEAN Diff. (inhibition of the detection reaction) of COc1ccc(CC2c3cc(O)c(OC)cc3CCN2C)cc1O (single isomer, unassigned; (+)) [Compound 19, (+)-Reticuline] , thanks.
1.06

What does the record list as P450-Glo Detection Reaction MEAN Diff. (inhibition of the detection reaction) for COc1ccc(C[C@H]2c3cc(OC)c(OC)cc3CCN2C)cc1O [Compound 11, (+)-Laudanidine] ?
5.86

----------
# tgt: CYP2D6 (Homo sapiens, UniProt P10635)
# protocol-notes: in vitro
# test-parameters: recombinant enzyme, pH 7.4
inhibition at 100 µM values by entry
State just the number; it will be interpreted in %.

| compound | reading |
| --- | --- |
| COC(=O)C1=CO[C@@H](C)[C@@H]2CN3CC[C@@]4(C(=O)Nc5ccccc54)[C@@H]3C[C@H]12 [Compound 2, Isopteropodine] | 56.8 |

Read the next record carefully.
Can you share its inhibition at 100 µM? I mean this compound: CN1Cc2c(ccc3c2OCO3)[C@@H]2[C@H]1c1cc3c(cc1C[C@@H]2O)OCO3 [Compound 21, (+)-Chelidonine]
99.5

----------
This section presents compounds with their documented pIC50 values.
# tgt: CYP2D6 (Homo sapiens, UniProt P10635)
# protocol-notes: P450-Glo CYP2D6 inhibition assay (bioluminescence-based; pre-screen at 100 µM and IC50 determination)
# test-parameters: IC50, P450-Glo CYP2D6 Inhibition Assay, recombinant human CYP2D6, 6 concentrations (compound 18: 4), n = 3
Friendly reminder that pIC50 comes from taking -log10 of the concentration in mol/L.

| compound | tgt | pIC50 |
| --- | --- | --- |
| CC[C@]12C=CCN3CC[C@]4(C(=C(C(=O)OC)C1)Nc1ccccc14)[C@@H]32 [Compound 22, Tabersonine] | CYP2D6 (Homo sapiens, UniProt P10635) | 6.38 |

Lab note: need pIC50 with CYP2D6 (Homo sapiens, UniProt P10635) for entry COc1ccc2c(c1OC)CN1CCc3cc4c(cc3C1C2C)OCO4 (centres unmarked) [Compound 3, Thalictrivacine] , please look it up.
5.29

----------
# Test system: CYP2D6
# protocol-notes: CYP2D6 inhibition of virtual hits already reported in the literature
# test-parameters: authors' classification of the literature value, Supplementary Table S2
recorded-metric: Classification of literature CYP2D6 inhibition

Consider the reported Classification of literature CYP2D6 inhibition for these compounds:
| compound | reading |
| --- | --- |
| COc1cc2c(cc1OC)[C@H]1[C@@H](C)c3ccc(OC)c(OC)c3CN1CC2 [Corydaline] | weak |
| CCC12C=CCN3CC[C@@]4(c5ccc(OC)cc5N(C)[C@H]4[C@@](O)(C(=O)OC)[C@@H]1OC(C)=O)[C@@H]32 (stereo partly shown) [Vindoline] | active |
| COC(=O)C1=CO[C@@H](C)[C@H]2CN3CCc4c([nH]c5ccccc45)[C@@H]3C[C@H]12 [Ajmalicine] | active |
| COc1ccc2c(c1OC)C(=O)O[C@@H]2[C@H]1c2c(cc3c(c2OC)OCO3)CCN1C [Noscapine] | inactive |
| COc1cc2c(cc1OC)C(=O)Cc1ccc3c(c1CN(C)CC2)OCO3 [Cryptopine] | unclear |
| COc1cc2c(cc1OC)[C@@H]1Cc3ccc(OC)c(OC)c3CN1CC2 [Tetrahydropalmatine] | active |
| COc1ccc(CC2c3cc(OC)c(OC)cc3CCN2C)cc1OC (stereo not shown) [Laudanosine] | unclear |
| COC1=C[C@@H]2[C@@H]3Cc4ccc(OC)c(O)c4[C@]2(CCN3C)CC1=O [Sinomenine] | inactive |
| C=C[C@H]1CN2CC[C@H]1C[C@H]2[C@H](O)c1ccnc2ccccc12 [Cinchonidine] | active |

Attention now turns to another entry.
Would you kindly share the measured Classification of literature CYP2D6 inhibition for COc1cc2c(cc1O)CCN1Cc3c(ccc(OC)c3OC)C[C@H]21 [Corypalmine] ?
active
